Test system: SNB-19
Experiment: NCI tumour cell line growth inhibition, 48 h
Active and inactive are the calls of the source. Cut-off read from the data, not from the text of the source: active = GI50 up to about 1.1 µM and inactive = higher.
// classify into TRUE = active, FALSE = inactive

Input: Status in this test for CC1CC2(CC[C@@H]1O)OCCO2 (stereo partly drawn) ?
Output: FALSE

Input: Status in this test for Cn1c(=O)c2nc(CCCCc3nc4ccccc4[nH]3)[nH]c2n(C)c1=O ?
Output: FALSE

Input: Status in this test for O=S1(=O)c2ccccc2NC(=S)CC1c1ccccc1 (stereo not drawn) ?
Output: FALSE

Input: Status in this test for C[C@]12CCC(=O)C=C1CC[C@@H]1[C@@H]2CC[C@]2(C)C(=O)[C@H](n3ccnc3)C[C@@H]12 ?
Output: FALSE

Input: Status in this test for COC(=O)c1nc2c(C)c(O)c(O)c([C@H](C)CCC=C(C)C)c2o1 ?
Output: FALSE

Input: Status in this test for NC(Cc1c[nH]c2ccc([N+](=O)[O-])cc12)C(=O)O (stereo not drawn) ?
Output: FALSE

Input: Status in this test for Cn1c(=S)sc2nc3ccccc3n2c1=S ?
Output: FALSE

Input: Status in this test for C=C1C2CC3CCC2C(OC(=O)c2ccccc2C(=O)O)C13 (stereo not drawn) ?
Output: FALSE

Input: Status in this test for C=C1CN=C(Nc2ccc(F)cc2F)S1 ?
Output: FALSE

Input: Status in this test for C/C(=N/NC(=S)Nc1cccc(C)c1)c1ccccn1 ?
Output: TRUE

Input: Status in this test for O=[N+]([O-])c1cc(-[n+]2cc([O-])on2)ccc1Cl ?
Output: FALSE

Input: Status in this test for CCNC(=O)COc1ccc(Br)cc1Br ?
Output: FALSE

Input: Status in this test for O=C(O)CN(CC(=O)O)Cc1cc(C#Cc2ccc(C#Cc3ccccc3)cc2)cc(CN(CC(=O)O)CC(=O)O)n1 ?
Output: FALSE

Input: Status in this test for COc1ccc2c3c(c(C(=O)O)oc13)C(CCC(=O)O)CC2 (stereo not drawn) ?
Output: FALSE

Input: Status in this test for COc1ccc2nc(NC(=O)C(=O)NNC(=O)c3ccncc3)sc2c1 ?
Output: FALSE

Input: Status in this test for CCOC(=O)c1sc2nc(SC)nc3c2c1N=CN3c1ccccc1Cl ?
Output: FALSE

Input: Status in this test for O=[N+]([O-])c1ccc(Cl)c(C2CC(c3cccc4ccccc34)=Nc3ccccc3[S+]2[O-])c1 (stereo not drawn) ?
Output: FALSE

Input: Status in this test for CS(=O)(=O)N1CC(CCl)c2ccc(NO)cc21 (stereo not drawn) ?
Output: FALSE

Input: Status in this test for Cc1nnc(N)nc1C/C=C/C(C)Sc1ccc(Cl)cc1 (stereo not drawn) ?
Output: FALSE

Input: Status in this test for Cc1nn(C)cc1P(=S)(c1ccccc1)c1ccccc1 ?
Output: FALSE

Input: Status in this test for C=CC[C@H](C)CCC(=O)N1[C@H]2CC3CC[C@@]2(CS1(=O)=O)C3(C)C ?
Output: FALSE

Input: Status in this test for CSc1nc(NC2OCC(O)C(O)C2O)c(N)c(=O)n1C (stereo not drawn) ?
Output: FALSE

Input: Status in this test for O=C(O)C1C2CC3C(OC(=O)C31)C2Br (stereo not drawn) ?
Output: FALSE

Entry source: ChEMBL document CHEMBL1201862
